Source listed as PubChem BioAssay (NCI).

System: HOP-62 NSCLC
PROTOCOL_NOTES: NCI-60 one-dose screen, 48 h
CONDITIONS: 10 µM unless noted
This is part of a sample that, as a whole, favours compounds with a hit. Of some 83,000 tested, about 20% had one in any assay. Activity calls are given as the source filed them. How the source made its calls: active means growth percent below 10; inactive means the rest.
Outcomes: t (active), f (inactive)

COc1ccc2c(c1)c(C1(O)CC(CSC#N)OC1=O)cn2C(=O)c1ccc(Cl)cc1 (centres undefined)
f
CCn1c2ccccc2c2cc(C(=O)c3ccc(C)c4ccccc34)ccc21
t
Clc1ccc(CSC(Cn2ccnc2)c2ccc(Cl)cc2Cl)cc1 (centres undefined)
f
CCCCCC1(CCBr)C(=O)NC(=O)NC1=O
f
